- test-description: Rat pharmacokinetics, iv and po dosing, whole blood and plasma
- Assay type: in vivo
- condition-parameters: intravenous, 1 mg/kg, from volumes of distribution in plasma and whole blood, read-out: difference in blood to plasma ratio
observable: blood plasma ratio

Please report the recorded blood plasma ratio for CC(C)CC1NC(=O)[C@H](CC(C)C)N(C)C(=O)CN(C)C(=O)C([C@@H](C)O)NC(=O)C([C@H](O)[C@H](C)CCN2CCOCC2)N(C)C(=O)C(C(C)C)N(C)C(=O)C(CC(C)C)NC(=O)C(CC(C)C)N(C)C(=O)C(C(C)C)OC(=O)C(C)NC(=O)C(CC(C)C)N(C)C1=O (stereo in doubt) .
~3

###

- test-description: Rat pharmacokinetics, iv and po dosing, whole blood and plasma
- Assay type: in vivo
- condition-parameters: plasma, po 10 mg/kg vs iv 1 mg/kg, mean
observable: bioavailability (%)
// note: answer is a bare numeric in %

Please report the recorded bioavailability for CC(C)CC1NC(=O)[C@H](CC(C)C)N(C)C(=O)CN(C)C(=O)C([C@@H](C)O)NC(=O)C([C@H](O)[C@H](C)CCN2CCOCC2)N(C)C(=O)C(C(C)C)N(C)C(=O)C(CC(C)C)NC(=O)C(CC(C)C)N(C)C(=O)C(C(C)C)OC(=O)C(C)NC(=O)C(CC(C)C)N(C)C1=O (stereo in doubt) .
95.9

###

Recorded measurements of pKi, one per entry
- system-tested: cyclophilin A (Cyp A) (Homo sapiens)
- Construct: purchased Sigma C3805
- Sequence (P62937 whole entry): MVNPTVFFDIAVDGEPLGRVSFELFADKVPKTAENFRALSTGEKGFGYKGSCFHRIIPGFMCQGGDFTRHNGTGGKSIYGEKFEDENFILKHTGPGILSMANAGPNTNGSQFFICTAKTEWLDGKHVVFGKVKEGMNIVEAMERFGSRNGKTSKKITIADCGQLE
- test-description: Protease-free PPIase assay, cyclophilin A
- Type: biochemical
pKi: −log10 of the molar value. Numbered stars: 1 amine (or outer) side, 2 acyl side, 3 side chain; on linkers, the order of the positions; unused ones are H or OH. Square brackets hold non-standard residues; d marks the D form. Peptide text beside a SMILES is read from it. X32 = CC(=O)N(CC[C@@H](C)[C@@H](O)[C@H](C(=O)[*:2])N(C)[*:1])C(C)C; X9 = C[C@H](CC(=O)NCc1ccccc1)[C@@H](O)[C@H](C(=O)[*:2])N(C)[*:1]; X1 = Cc1cccc(CCC[C@@H](C)[C@@H](O)[C@H](C(=O)[*:2])N(C)[*:1])n1; X27 = C[C@H](CCN(C)c1ccccn1)[C@@H](O)[C@H](C(=O)[*:2])N(C)[*:1]; d(aThr) = C[C@@H](O)[C@@H](N)C(=O)O; NMeL = CN[C@@H](CC(C)C)C(=O)O; dNMeL = CN[C@H](CC(C)C)C(=O)O; dNMeV = CN[C@@H](C(=O)O)C(C)C; Hiv = CC(C)[C@H](O)C(=O)O; dAbu = CC[C@@H](N)C(=O)O; Sar = CNCC(=O)O

Please review the entries below; each comes with its answer.
compound	system-tested	obs-value
CC(=O)N(CC[C@@H](C)[C@@H](O)[C@@H]1C(=O)N[C@H]([C@@H](C)O)C(=O)N(C)CC(=O)N(C)[C@@H](CC(C)C)C(=O)N[C@H](CC(C)C)C(=O)N(C)[C@H](CC(C)C)C(=O)N[C@H](C)C(=O)O[C@@H](C(C)C)C(=O)N(C)[C@H](CC(C)C)C(=O)N[C@H](CC(C)C)C(=O)N(C)[C@H](C(C)C)C(=O)N1C)C(C)C [Example 38] (cyclo([Hiv][dNMeL][dL][dNMeV][X32][d(aThr)][Sar][NMeL][dL][dNMeL][dA]))	cyclophilin A (Cyp A) (Homo sapiens)	7.00 to 7.60
CC(C)C[C@@H]1C(=O)N[C@H](CC(C)C)C(=O)N(C)[C@H](C(C)C)C(=O)N(C)[C@H]([C@H](O)[C@H](C)CC(=O)NCc2ccccc2)C(=O)N[C@H]([C@@H](C)O)C(=O)N(C)CC(=O)N(C)[C@@H](CC(C)C)C(=O)N[C@H](CC(C)C)C(=O)N(C)[C@H](CC(C)C)C(=O)N[C@H](C)C(=O)O[C@@H](C(C)C)C(=O)N1C [Example 36] (cyclo([Hiv][dNMeL][dL][dNMeV][X9][d(aThr)][Sar][NMeL][dL][dNMeL][dA]))	cyclophilin A (Cyp A) (Homo sapiens)	7.60 to 9.00
CC(C)C[C@@H]1C(=O)N[C@H](CC(C)C)C(=O)N(C)[C@H](C(C)C)C(=O)N(C)[C@H]([C@H](O)[C@H](C)CCN(C)c2ccccn2)C(=O)N[C@H]([C@@H](C)O)C(=O)N(C)CC(=O)N(C)[C@@H](CC(C)C)C(=O)N[C@H](CC(C)C)C(=O)N(C)[C@H](CC(C)C)C(=O)N[C@H](C)C(=O)O[C@@H](C(C)C)C(=O)N1C [Example 28] (cyclo([Hiv][dNMeL][dL][dNMeV][X27][d(aThr)][Sar][NMeL][dL][dNMeL][dA]))	cyclophilin A (Cyp A) (Homo sapiens)	7.60 to 9.00
CC[C@H]1NC(=O)[C@@H]([C@H](O)[C@H](C)CCCc2cccc(C)n2)N(C)C(=O)[C@@H](C(C)C)N(C)C(=O)[C@@H](CC(C)C)NC(=O)[C@@H](CC(C)C)N(C)C(=O)[C@H](C(C)C)OC(=O)[C@@H](C)NC(=O)[C@@H](CC(C)C)N(C)C(=O)[C@@H](CC(C)C)NC(=O)[C@H](CC(C)C)N(C)C(=O)CN(C)C1=O [Example 21] (cyclo([Hiv][dNMeL][dL][dNMeV][X1][dAbu][Sar][NMeL][dL][dNMeL][dA]))	cyclophilin A (Cyp A) (Homo sapiens)	7.60 to 9.00

// next entry
Please report the recorded pKi for CO[C@H](C)[C@H]1NC(=O)[C@@H]([C@H](O)[C@H](C)CCN2CCOCC2)N(C)C(=O)[C@@H](C(C)C)N(C)C(=O)[C@@H](CC(C)C)NC(=O)[C@@H](CC(C)C)N(C)C(=O)[C@H](C(C)C)OC(=O)[C@@H](C)NC(=O)[C@@H](CC(C)C)N(C)C(=O)[C@@H](CC(C)C)NC(=O)[C@H](CC(C)C)N(C)C(=O)CN(C)C1=O (stereo in doubt) .
7.00 to 7.60

###

- test-description: Rat pharmacokinetics, iv and po dosing, whole blood and plasma
- Type: in vivo
- condition-parameters: plasma, iv 1 mg/kg, mean, read-out: volume of distribution at the terminal phase
observable: Vd
In your response, the unit should come after the numeric value.

Please report the recorded Vd for CC(C)CC1NC(=O)[C@H](CC(C)C)N(C)C(=O)CN(C)C(=O)C([C@@H](C)O)NC(=O)C([C@H](O)[C@H](C)CCN2CCOCC2)N(C)C(=O)C(C(C)C)N(C)C(=O)C(CC(C)C)NC(=O)C(CC(C)C)N(C)C(=O)C(C(C)C)OC(=O)C(C)NC(=O)C(CC(C)C)N(C)C1=O (stereo in doubt) .
29.9 L/kg

###

- system-tested: cyclophilin A (Cyp A) (Homo sapiens)
- Construct: purchased Sigma C3805
- test-description: Protease-free PPIase assay, cyclophilin A
- Format: biochemical
- condition-parameters: protease-free PPIase assay, class symbols; read-out: CypA Ki
pKi: −log10 of the molar value. Numbered stars: 1 amine (or outer) side, 2 acyl side, 3 side chain; on linkers, the order of the positions; unused ones are H or OH. Square brackets hold non-standard residues; d marks the D form. Peptide text beside a SMILES is read from it. X2 = C[C@H](CCCc1cccc(N2CCOCC2)n1)[C@@H](O)[C@H](C(=O)[*:2])N(C)[*:1]; X17 = C[C@H](CCN(C)CCc1ccccn1)[C@@H](O)[C@H](C(=O)[*:2])N(C)[*:1]; d(aThr) = C[C@@H](O)[C@@H](N)C(=O)O; NMeL = CN[C@@H](CC(C)C)C(=O)O; dNMeL = CN[C@H](CC(C)C)C(=O)O; dNMeV = CN[C@@H](C(=O)O)C(C)C; Hiv = CC(C)[C@H](O)C(=O)O; Sar = CNCC(=O)O
Recorded measurements of pKi, one per entry

molecule	pKi
CC(C)C[C@@H]1C(=O)N[C@H](CC(C)C)C(=O)N(C)[C@H](C(C)C)C(=O)N(C)[C@H]([C@H](O)[C@H](C)CCN(C)CCc2ccccn2)C(=O)N[C@H]([C@@H](C)O)C(=O)N(C)CC(=O)N(C)[C@@H](CC(C)C)C(=O)N[C@H](CC(C)C)C(=O)N(C)[C@H](CC(C)C)C(=O)N[C@H](C)C(=O)O[C@@H](C(C)C)C(=O)N1C [Example 4] (cyclo([Hiv][dNMeL][dL][dNMeV][X17][d(aThr)][Sar][NMeL][dL][dNMeL][dA]))	7.60 to 9.00

// next entry
Please report the recorded pKi for CC(C)C[C@@H]1C(=O)N[C@H](CC(C)C)C(=O)N(C)[C@H](C(C)C)C(=O)N(C)[C@H]([C@H](O)[C@H](C)CCCc2cccc(N3CCOCC3)n2)C(=O)N[C@H]([C@@H](C)O)C(=O)N(C)CC(=O)N(C)[C@@H](CC(C)C)C(=O)N[C@H](CC(C)C)C(=O)N(C)[C@H](CC(C)C)C(=O)N[C@H](C)C(=O)O[C@@H](C(C)C)C(=O)N1C [Example 20] (cyclo([Hiv][dNMeL][dL][dNMeV][X2][d(aThr)][Sar][NMeL][dL][dNMeL][dA])) .
7.60 to 9.00
